- Assay system: HIV-1 Env of Q461.e2 (HIV-1)
- Protocol text: cell-based or functional assay

Binder	neutralization IC50
CAP256-VRC26.01 (antibody, V domains shown) VH: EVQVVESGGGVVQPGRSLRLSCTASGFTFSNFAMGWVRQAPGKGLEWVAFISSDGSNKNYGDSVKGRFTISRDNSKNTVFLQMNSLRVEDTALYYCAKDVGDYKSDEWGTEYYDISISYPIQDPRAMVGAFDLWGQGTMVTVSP VL: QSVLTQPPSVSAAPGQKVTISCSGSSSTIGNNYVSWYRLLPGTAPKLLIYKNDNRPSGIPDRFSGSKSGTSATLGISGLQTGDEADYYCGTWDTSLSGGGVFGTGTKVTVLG	> 50 µg/mL
CAP256-VRC26.07 (antibody, V domains shown) VH: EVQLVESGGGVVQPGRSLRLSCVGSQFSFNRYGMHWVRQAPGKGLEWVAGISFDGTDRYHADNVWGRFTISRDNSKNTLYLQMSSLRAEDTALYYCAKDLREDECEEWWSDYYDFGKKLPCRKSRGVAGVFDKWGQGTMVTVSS VL: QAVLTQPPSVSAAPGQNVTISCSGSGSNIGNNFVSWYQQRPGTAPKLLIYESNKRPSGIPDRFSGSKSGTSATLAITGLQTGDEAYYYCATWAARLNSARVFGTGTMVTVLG	> 50 µg/mL
